# assayed target: T1, O2-bP
# T1 chain: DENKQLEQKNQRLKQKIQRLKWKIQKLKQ
# experiment description: two-hybrid library CCNG1;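 also: natural log of median RNA to DNA barcode read ratio; higher means stronger binding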
value kind: interaction score

Previously resolved entries follow.
> print(dat)
                                   binder  meas.value
1  DKIKQLKQKNQRLKQEIQRLEWKNQKLKQ [O16-bP]        -1.5
2   DENKQLEQKNQRLKQKIQRLKWKIQKLKQ [O2-bP]        -1.2

a. DKIKQLKQEIQRLEQENQRLEWENQKLEQ [O11-bP]
b. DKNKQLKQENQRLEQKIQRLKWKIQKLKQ [O10-bP]
c. DENKQLEQEIQRLEQENQRLEWKIQKLKQ [O14-bP]
List items by interaction score in falling order. In your reply, arrange the labels in the requested order.
b, c, a
